Biological target: D(2) dopamine receptor (Homo sapiens, UniProt P14416)
Sequence (P14416 whole entry): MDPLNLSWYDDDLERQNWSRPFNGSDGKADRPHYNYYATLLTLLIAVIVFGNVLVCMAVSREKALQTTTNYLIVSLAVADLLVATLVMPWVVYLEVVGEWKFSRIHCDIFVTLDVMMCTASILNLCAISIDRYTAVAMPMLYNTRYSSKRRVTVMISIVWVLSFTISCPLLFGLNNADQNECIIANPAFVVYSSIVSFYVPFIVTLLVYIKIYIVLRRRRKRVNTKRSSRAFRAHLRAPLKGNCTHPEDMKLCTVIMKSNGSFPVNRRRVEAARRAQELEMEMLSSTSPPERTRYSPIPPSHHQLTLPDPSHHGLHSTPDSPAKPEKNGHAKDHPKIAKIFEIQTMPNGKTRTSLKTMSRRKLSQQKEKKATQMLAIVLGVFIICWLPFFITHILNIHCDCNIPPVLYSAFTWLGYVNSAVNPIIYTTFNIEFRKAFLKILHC
Test: Displacement of [3H]spiperone from human dopamine D2 receptor
Listing of entries alongside the reported pKi.
pKi here: minus log base 10 of the concentration, concentration in moles per litre.

> print(dat)
                                structure  observed.property  measurement
1  Clc1cccc(N2CCN(Cc3csc4ccccc34)CC2)c1Cl                pKi         6.42

Problem: For the molecule CCOc1ccccc1N1CCN(Cc2cccnc2)CC1 , what pKi is on record?
Solution: 6.59

Problem: # iterate: CCOc1ccccc1N1CCN(Cc2c[nH]c3ccccc23)CC1
Solution: 6.33

* * *

These molecules were tested on D(3) dopamine receptor (Homo sapiens); Ki is the recorded read-out.
Sequence (P35462 whole entry): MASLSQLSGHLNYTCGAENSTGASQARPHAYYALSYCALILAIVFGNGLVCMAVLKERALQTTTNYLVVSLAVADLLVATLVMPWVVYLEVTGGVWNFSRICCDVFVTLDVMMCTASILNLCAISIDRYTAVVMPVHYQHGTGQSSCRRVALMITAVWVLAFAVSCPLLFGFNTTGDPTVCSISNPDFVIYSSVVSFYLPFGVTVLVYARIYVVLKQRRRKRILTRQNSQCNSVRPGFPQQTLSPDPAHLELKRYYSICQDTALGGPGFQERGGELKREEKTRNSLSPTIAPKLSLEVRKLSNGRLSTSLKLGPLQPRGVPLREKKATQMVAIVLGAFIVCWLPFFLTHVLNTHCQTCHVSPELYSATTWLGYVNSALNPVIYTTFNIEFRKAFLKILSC
Output spec: scalar in nM, unitless text.

Record excerpt, results attached:
> print(dat)
                                  structure                                    tgt  observed.property  measurement
1   Clc1cccc(N2CCN(Cc3cccc4ccccc34)CC2)c1Cl  D(3) dopamine receptor (Homo sapiens)                 Ki           92
2         Clc1cccc(N2CCN(Cc3cccnc3)CC2)c1Cl  D(3) dopamine receptor (Homo sapiens)                 Ki           41
3             CCOc1ccccc1N1CCN(Cc2cccs2)CC1  D(3) dopamine receptor (Homo sapiens)                 Ki          112
4       CCOc1ccccc1N1CCN(Cc2csc3ccccc23)CC1  D(3) dopamine receptor (Homo sapiens)                 Ki         45.1
5    Clc1cccc(N2CCN(Cc3csc4ccccc34)CC2)c1Cl  D(3) dopamine receptor (Homo sapiens)                 Ki         52.5
6  Clc1cccc(N2CCN(Cc3c[nH]c4ccccc34)CC2)c1Cl  D(3) dopamine receptor (Homo sapiens)                 Ki          123

Problem: Value wanted: Ki (D(3) dopamine receptor (Homo sapiens)) of entry CCOc1ccccc1N1CCN(Cc2cccnc2)CC1
Solution: 42

Problem: Could you do the same for CCOc1ccccc1N1CCN(Cc2c[nH]c3ccccc23)CC1 , please?
Solution: 103

Problem: Then CCOc1ccccc1N1CCN(Cc2cccc3ccccc23)CC1 ?
Solution: 59

* * *

Molecular target: D(4) dopamine receptor (Homo sapiens)
Sequence (P21917 whole entry): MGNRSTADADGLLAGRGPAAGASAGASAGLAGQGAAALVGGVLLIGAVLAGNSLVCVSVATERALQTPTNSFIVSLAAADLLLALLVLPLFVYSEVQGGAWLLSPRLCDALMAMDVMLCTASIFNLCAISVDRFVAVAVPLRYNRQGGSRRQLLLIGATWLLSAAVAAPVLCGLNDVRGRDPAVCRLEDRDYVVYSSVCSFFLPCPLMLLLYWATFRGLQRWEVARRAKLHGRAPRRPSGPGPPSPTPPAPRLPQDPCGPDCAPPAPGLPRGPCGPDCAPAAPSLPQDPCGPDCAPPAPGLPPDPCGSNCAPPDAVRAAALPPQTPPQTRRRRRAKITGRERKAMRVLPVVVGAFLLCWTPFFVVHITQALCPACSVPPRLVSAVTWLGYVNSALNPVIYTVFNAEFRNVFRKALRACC
We label by threshold. Values of Ki strictly beneath 3 nM are rule met. Values of 3 nM and up are rule not met.

These recorded examples may help you get a feel for the data.
> print(dat)
                                 structure         label
1   CCOc1ccccc1N1CCN(Cc2c[nH]c3ccccc23)CC1      rule met
2  Clc1cccc(N2CCN(Cc3cccc4ccccc34)CC2)c1Cl  rule not met
3        Clc1cccc(N2CCN(Cc3cccnc3)CC2)c1Cl  rule not met
4   Clc1cccc(N2CCN(Cc3csc4ccccc34)CC2)c1Cl  rule not met
5     Clc1ccc(N2CCN(Cc3cc4ccccn4n3)CC2)cc1  rule not met
6           CCOc1ccccc1N1CCN(Cc2cccnc2)CC1      rule met

Please find the next compound below.
Problem: I wonder whether CCOc1ccccc1N1CCN(Cc2cccc3ccccc23)CC1 has Ki below 3 nM. Can you tell?
Solution: rule met
